The compounds below have reported Ki for full-length Xenopus Mcm10 (xMcm10-FL) (Xenopus laevis, UniProt Q5EAW4).
Structures can show the parent of a compound that is named as a salt.
Provide only the numeric value, understood in µM.

>>> numeric_readout("O=C(Nc1cc(C(=O)Nc2ccc(S(=O)(=O)O)cc2)cc(C(=O)Nc2ccc(S(=O)(=O)O)cc2)c1)Nc1cc(C(=O)Nc2ccc(S(=O)(=O)O)cc2)cc(C(=O)Nc2ccc(S(=O)(=O)O)cc2)c1")
2.9
>>> numeric_readout("O=C(Nc1cc(C(=O)Nc2ccc(S(=O)(=O)O)cc2S(=O)(=O)O)cc(C(=O)Nc2ccc(S(=O)(=O)O)cc2S(=O)(=O)O)c1)Nc1cc(C(=O)Nc2ccc(S(=O)(=O)O)cc2S(=O)(=O)O)cc(C(=O)Nc2ccc(S(=O)(=O)O)cc2S(=O)(=O)O)c1")
1.9
>>> numeric_readout("O=C(Nc1cccc(C(=O)Nc2cc(C(=O)Nc3ccc(S(=O)(=O)O)c4cc(S(=O)(=O)O)cc(S(=O)(=O)O)c34)ccc2F)c1)Nc1cccc(C(=O)Nc2cc(C(=O)Nc3ccc(S(=O)(=O)O)c4cc(S(=O)(=O)O)cc(S(=O)(=O)O)c34)ccc2F)c1")
3.4
>>> numeric_readout("O=C(Nc1cccc(C(=O)Nc2ccc(S(=O)(=O)O)c3cc(S(=O)(=O)O)cc(S(=O)(=O)O)c23)c1)Nc1cccc(C(=O)Nc2ccc(S(=O)(=O)O)c3cc(S(=O)(=O)O)cc(S(=O)(=O)O)c23)c1")
4.4

Next compound, Ki to be filled in.
Incoming: Which Ki value belongs to Cc1ccc(C(=O)Nc2ccc(S(=O)(=O)O)c3cc(S(=O)(=O)O)cc(S(=O)(=O)O)c23)cc1NC(=O)c1cccc(NC(=O)Nc2cccc(C(=O)Nc3cc(C(=O)Nc4ccc(S(=O)(=O)O)c5cc(S(=O)(=O)O)cc(S(=O)(=O)O)c45)ccc3C)c2)c1 [suramin, suramin sodium salt] ?
Outgoing: 3.4

----------
Item-by-item account of pKi
# target system: human RPA70AB (A and B DNA binding domains of RPA70) (Homo sapiens, UniProt P27694)
# Construct: recombinant human RPA70AB (181-422) in a pSV281 vector; 6xHis (TEV site) (N, cleaved yes); made in house; host or cells: Escherichia coli BL21(DE3)
# Sequence (P27694 181-422): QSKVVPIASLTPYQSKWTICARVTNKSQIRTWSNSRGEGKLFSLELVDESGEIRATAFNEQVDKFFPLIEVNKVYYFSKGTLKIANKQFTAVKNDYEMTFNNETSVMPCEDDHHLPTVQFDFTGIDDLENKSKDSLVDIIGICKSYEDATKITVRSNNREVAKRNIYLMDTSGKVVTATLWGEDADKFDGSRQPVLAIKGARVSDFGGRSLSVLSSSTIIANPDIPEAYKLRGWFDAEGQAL
# assay summary: Fluorescence polarization competition assay, displacement of 5′-6FAM ssDNA probe from RPA70AB
# recorded conditions: predominant low-affinity (or only) component; mean ± s.e.m., n ≥ 3; read-out: fluorescence polarization hRPA70AB Ki2
Quick note: pKi means taking -log10 of the concentration in moles per liter.

Examples with their reported pKi follow.
>>> numeric_readout("O=C(Nc1cccc(C(=O)Nc2ccc(S(=O)(=O)O)c3cc(S(=O)(=O)O)cc(S(=O)(=O)O)c23)c1)Nc1cccc(C(=O)Nc2ccc(S(=O)(=O)O)c3cc(S(=O)(=O)O)cc(S(=O)(=O)O)c23)c1")
4.96
>>> numeric_readout("O=C(Nc1cc(C(=O)Nc2ccc(S(=O)(=O)O)cc2)cc(C(=O)Nc2ccc(S(=O)(=O)O)cc2)c1)Nc1cc(C(=O)Nc2ccc(S(=O)(=O)O)cc2)cc(C(=O)Nc2ccc(S(=O)(=O)O)cc2)c1")
4.64

Incoming: Fill in the blank: the reported pKi of O=C(Nc1cccc(C(=O)Nc2cc(C(=O)Nc3ccc(S(=O)(=O)O)c4cc(S(=O)(=O)O)cc(S(=O)(=O)O)c34)ccc2F)c1)Nc1cccc(C(=O)Nc2cc(C(=O)Nc3ccc(S(=O)(=O)O)c4cc(S(=O)(=O)O)cc(S(=O)(=O)O)c34)ccc2F)c1 is ____.
Outgoing: 5.72

----------
# target system: hMcm10-ID (Homo sapiens, UniProt Q7L590)
# Construct: hMcm10-ID (residues 237 to 436) were expressed in E. coli strain BL21(DE3); 6xHis (HRV 3C site) (N, cleaved yes); made in house; host or cells: E. coli BL21(DE3)
# Sequence (Q7L590 237-436): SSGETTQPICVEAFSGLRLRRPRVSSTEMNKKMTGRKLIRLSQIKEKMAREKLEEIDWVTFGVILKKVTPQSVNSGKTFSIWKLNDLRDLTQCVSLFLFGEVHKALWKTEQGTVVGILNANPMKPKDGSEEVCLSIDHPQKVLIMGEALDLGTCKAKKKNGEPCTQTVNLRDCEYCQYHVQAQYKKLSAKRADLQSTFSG
# assay summary: Surface plasmon resonance binding kinetics on immobilized hMcm10-ID (Biacore S200)
# recorded conditions: calculated from association and dissociation rate constants; 1:1 model, 6000–8000 RU; read-out: surface plasmon resonance hMcm10-ID kinetic KD
Criterion: Kd strictly less than 5 µM. Met: Satisfied. Not met: Not satisfied.

Some solved entries appear below for comparison.
>>> assigned_label("O=C(Nc1cccc(C(=O)Nc2cc(C(=O)Nc3ccc(S(=O)(=O)O)c4cc(S(=O)(=O)O)cc(S(=O)(=O)O)c34)ccc2F)c1)Nc1cccc(C(=O)Nc2cc(C(=O)Nc3ccc(S(=O)(=O)O)c4cc(S(=O)(=O)O)cc(S(=O)(=O)O)c34)ccc2F)c1")
"Satisfied"
>>> assigned_label("O=C(Nc1cc(C(=O)Nc2ccc(S(=O)(=O)O)cc2S(=O)(=O)O)cc(C(=O)Nc2ccc(S(=O)(=O)O)cc2S(=O)(=O)O)c1)Nc1cc(C(=O)Nc2ccc(S(=O)(=O)O)cc2S(=O)(=O)O)cc(C(=O)Nc2ccc(S(=O)(=O)O)cc2S(=O)(=O)O)c1")
"Satisfied"

Incoming: Threshold test, Kd < 5 µM: O=C(Nc1cc(C(=O)Nc2ccc(S(=O)(=O)O)cc2)cc(C(=O)Nc2ccc(S(=O)(=O)O)cc2)c1)Nc1cc(C(=O)Nc2ccc(S(=O)(=O)O)cc2)cc(C(=O)Nc2ccc(S(=O)(=O)O)cc2)c1
Outgoing: Satisfied

Incoming: Note, next up: Cc1nc(/N=N/c2ccc(S(=O)(=O)O)cc2S(=O)(=O)O)c(COP(=O)(O)O)c(C=O)c1O
Outgoing: Not satisfied

----------
# kon per record follows
# target system: hMcm10-ID (Homo sapiens)
# Construct: hMcm10-ID (residues 237 to 436) were expressed in E. coli strain BL21(DE3); 6xHis (HRV 3C site) (N, cleaved yes); made in house; host or cells: E. coli BL21(DE3)
# assay summary: Surface plasmon resonance binding kinetics on immobilized hMcm10-ID (Biacore S200)
# recorded conditions: 1:1 model, 6000–8000 RU, 25°C; read-out: surface plasmon resonance hMcm10-ID ka
Counter-ions that a name gives are not always drawn.
Enter your answer as a number in M⁻¹ s⁻¹; do not include the unit.

Known kon results, listed for orientation:
>>> numeric_readout("Cc1ccc(C(=O)Nc2ccc(S(=O)(=O)O)c3cc(S(=O)(=O)O)cc(S(=O)(=O)O)c23)cc1NC(=O)c1cccc(NC(=O)Nc2cccc(C(=O)Nc3cc(C(=O)Nc4ccc(S(=O)(=O)O)c5cc(S(=O)(=O)O)cc(S(=O)(=O)O)c45)ccc3C)c2)c1 [suramin, suramin sodium salt]")
290000
>>> numeric_readout("O=C(Nc1cccc(C(=O)Nc2cc(C(=O)Nc3ccc(S(=O)(=O)O)c4cc(S(=O)(=O)O)cc(S(=O)(=O)O)c34)ccc2F)c1)Nc1cccc(C(=O)Nc2cc(C(=O)Nc3ccc(S(=O)(=O)O)c4cc(S(=O)(=O)O)cc(S(=O)(=O)O)c34)ccc2F)c1")
7400
>>> numeric_readout("O=C(Nc1cccc(C(=O)Nc2ccc(S(=O)(=O)O)c3cc(S(=O)(=O)O)cc(S(=O)(=O)O)c23)c1)Nc1cccc(C(=O)Nc2ccc(S(=O)(=O)O)c3cc(S(=O)(=O)O)cc(S(=O)(=O)O)c23)c1")
360000
>>> numeric_readout("O=C(Nc1cc(C(=O)Nc2ccc(S(=O)(=O)O)cc2S(=O)(=O)O)cc(C(=O)Nc2ccc(S(=O)(=O)O)cc2S(=O)(=O)O)c1)Nc1cc(C(=O)Nc2ccc(S(=O)(=O)O)cc2S(=O)(=O)O)cc(C(=O)Nc2ccc(S(=O)(=O)O)cc2S(=O)(=O)O)c1")
780000
>>> numeric_readout("Cc1nc(/N=N/c2cc(S(=O)(=O)O)ccc2S(=O)(=O)O)c(COP(=O)(O)O)c(C=O)c1O")
47

Incoming: # query: kon | item O=C(Nc1cc(C(=O)Nc2ccc(S(=O)(=O)O)cc2)cc(C(=O)Nc2ccc(S(=O)(=O)O)cc2)c1)Nc1cc(C(=O)Nc2ccc(S(=O)(=O)O)cc2)cc(C(=O)Nc2ccc(S(=O)(=O)O)cc2)c1 | system: hMcm10-ID (Homo sapiens)
Outgoing: 290000

Incoming: What do we get for Cc1nc(/N=N/c2ccc(S(=O)(=O)O)cc2S(=O)(=O)O)c(COP(=O)(O)O)c(C=O)c1O ?
Outgoing: 29
